testSystem: Dickkopf-related protein 1 (Homo sapiens)
testDetails: DKK1 binders on small-molecule microarrays, primary screen, biochemical, small-molecule microarray, 635 nm fluorescence scan (AID 1106);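 note: score merges emission near 667 nm with signal to noise over three replicate slides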
runConditions: DKK1 binding, higher = more signal
measuredProperty: composite z-score

compound: O=C1C2=CC[C@H]3C(=O)N(c4cccc(Oc5ccccc5)c4)C(=O)[C@H]3[C@H]2[C@H](O)[C@@H]2O[C@H]12
measuredProperty: composite z-score
readoutValue: 0.655

compound: C[C@@H]1CC[C@H]2C(=O)O[C@@H](COc3ccc(C(C)(C)C)cc3)CN2[C@@H]1c1ccc(Br)cc1
measuredProperty: composite z-score
readoutValue: -0.924

compound: COC(=O)CC=C[C@@H](C)[C@@H](C=NO[C@@H]1O[C@H](COC(C)=O)[C@@H](OC(C)=O)[C@H](OC(C)=O)[C@H]1OC(C)=O)NS(=O)(=O)c1ccc(C)cc1
measuredProperty: composite z-score
readoutValue: 0.833

compound: CCOC(=O)[C@H](Cc1ccccc1)NC(=O)CCC1CC(OC(=O)NCCc2ccc(F)cc2)CC2(CCCC(COC(=O)NCC3CCCCC3)O2)O1 (some centres not stated)
measuredProperty: composite z-score
readoutValue: 1.33

compound: COc1cccc([C@H]2Oc3ccc(OC)cc3C(=NOC(C)CN3CCCCc4nc(C)c(C)cc43)[C@@H]2O)c1 (some centres not stated)
measuredProperty: composite z-score
readoutValue: 0.064

compound: C#CCCCON=C1C[C@@H](O)[C@@H](O)[C@@H]2[C@@H]3C(=O)N(c4cccc(Oc5ccccc5)c4)C(=O)[C@@H]3CC[C@H]12
measuredProperty: composite z-score
readoutValue: -0.557

compound: COC(=O)[C@H](C)NC(=O)CCC1CC(OC(=O)NCCc2ccc(F)cc2)CC2(CCCC(COC(=O)NCCC(C)C)O2)O1 (some centres not stated)
measuredProperty: composite z-score
readoutValue: 0.0468

* * *

Tested on: Lefty1
testDetails: Lefty1 binders on small-molecule microarrays, primary screen, biochemical, small-molecule microarray, 635/667 nm fluorescence (AID 1139)
runConditions: small-molecule microarray binding, fluorescence 635/667; higher = more signal
If the reported composite z-score equals or exceeds -0.1, assign criterion met. If not, assign criterion not met.

molecule: O=C1[C@H]2[C@H]3[C@H](O)[C@H](O)CC(=NOCc4ccccc4)[C@@H]3CC[C@H]2C(=O)N1C[C@@H]1CCCO1
classAssignment: criterion met

molecule: O=C1CCCC=C1C(O)CCCCBr (configuration not stated)
classAssignment: criterion met

molecule: CCOC(=O)[C@H](CC(C)C)NC(=O)CCC1CC(OC(=O)NCc2cccc3ccccc23)CC2(CCCC(COC(=O)NCCOC)O2)O1 (some centres not stated)
classAssignment: criterion met

molecule: O=C(NN=C1C[C@@H](O)[C@@H](O)[C@@H]2[C@@H]3C(=O)N(C4CCCCC4)C(=O)[C@@H]3CC[C@H]12)OCc1ccccc1
classAssignment: criterion not met

molecule: CC(C)CON=C1C[C@@H](O)[C@@H](O)[C@@H]2[C@@H]3C(=O)N(C(C)(C)C)C(=O)[C@@H]3CC[C@H]12
classAssignment: criterion not met

molecule: CCOC(=O)[C@H](Cc1ccccc1)NC(=O)CCC1CC(OC(=O)NCCc2ccc(F)cc2)CC2(CCCC(COC(=O)NCC3CCCCC3)O2)O1 (some centres not stated)
classAssignment: criterion met

molecule: C=CC[C@@H]1C=C[C@H](ON=C[C@@H](C)[C@H](OCc2ccccc2)C(C)C)[C@@H](CO)O1
classAssignment: criterion met
